- PROTOCOL_CONDITIONS: 343.15 K; 100 kPa; Liquid; Vibrating tube method
OBSERVATION_TYPE: mass density (kg/m3)
Unit kg/m3 implied. Number only.

For C[N+](CCO)(CCO)CCO.O=S(=O)([N-]S(=O)(=O)C(F)(F)F)C(F)(F)F , what is its reported mass density?
1526.6

What do we get for CC[N+](C)(C)CCCO.O=S(=O)([N-]S(=O)(=O)C(F)(F)F)C(F)(F)F ?
1424.4

Next molecule up: CC[N+](C)(CCO)CCO.O=S(=O)([N-]S(=O)(=O)C(F)(F)F)C(F)(F)F
1475.4

Next up: CC[N+](CCO)(CCO)CCO.O=S(=O)([N-]S(=O)(=O)C(F)(F)F)C(F)(F)F
1490.6

***
What value of mass density has been reported for the following molecule? CCCC[N+](C)(C)CC.O=S(=O)([N-]S(=O)(=O)C(F)(F)F)C(F)(F)F
1332.6

Follow-up entry: CCCC[N+](CCO)(CCO)CCO.O=S(=O)([N-]S(=O)(=O)C(F)(F)F)C(F)(F)F
1417.8

And what about the molecule CC[N+](C)(C)CCOC.O=S(=O)([N-]S(=O)(=O)C(F)(F)F)C(F)(F)F ?
1389.5

---

- PROTOCOL_CONDITIONS: 330.15 K; 100 kPa; Liquid; Vibrating tube method
OBSERVATION_TYPE: mass density (kg/m3)
State the answer as a number, implicitly in kg/m3.

Which mass density value belongs to C[N+](CCO)(CCO)CCO.O=S(=O)([N-]S(=O)(=O)C(F)(F)F)C(F)(F)F ?
1538.1

Continuing:
Report mass density for CC[N+](C)(CCO)CCO.O=S(=O)([N-]S(=O)(=O)C(F)(F)F)C(F)(F)F please.
1486.7

Now consider CCCC[N+](C)(C)CC.O=S(=O)([N-]S(=O)(=O)C(F)(F)F)C(F)(F)F and answer again.
1343.7

Also need CC[N+](C)(C)CCCO.O=S(=O)([N-]S(=O)(=O)C(F)(F)F)C(F)(F)F , thanks.
1435.6

---

- PROTOCOL_CONDITIONS: 308.15 K; 100 kPa; Liquid; Concentric cylinders viscometry
Threshold-based label: viscosity under 300 mPa·s gives met, viscosity not under 300 mPa·s gives not met.

Could you please tell me whether viscosity recorded for CCCC[N+](C)(C)CC.O=S(=O)([N-]S(=O)(=O)C(F)(F)F)C(F)(F)F is less than 300 mPa·s?
met

// query: C[N+](CCO)(CCO)CCO.O=S(=O)([N-]S(=O)(=O)C(F)(F)F)C(F)(F)F
met

What would you report for CC[N+](C)(C)CCCO.O=S(=O)([N-]S(=O)(=O)C(F)(F)F)C(F)(F)F ?
met

Entry CCCC[N+](CCO)(CCO)CCO.O=S(=O)([N-]S(=O)(=O)C(F)(F)F)C(F)(F)F please
not met

# repeat for CC[N+](CCO)(CCO)CCO.O=S(=O)([N-]S(=O)(=O)C(F)(F)F)C(F)(F)F
not met

Ok, now CC[N+](C)(CCO)CCO.O=S(=O)([N-]S(=O)(=O)C(F)(F)F)C(F)(F)F
met

How about this compound: CC[N+](C)(C)CCOC.O=S(=O)([N-]S(=O)(=O)C(F)(F)F)C(F)(F)F
met
